- assay overview: Mouse pharmacokinetics after oral gavage, plasma drug concentration by LC-MS/MS (C57BL/6)
- Format: in vivo, C57bl/6 mice
- condition set: mouse, plasma, C57BL/6, 60 mg/kg, female mice, read-out: AUC0-24
measurement label: AUC(0-t) (µM·h)

1) CN1CCN(C(=O)CCC(=O)N2Cc3ccccc3C[C@H]2C(=O)NC2(C(=O)Nc3ccc(Cl)c(Cl)c3F)CCNCC2)CC1: 1.8
2) NCC[C@H](NC(=O)[C@@H]1Cc2ccccc2CN1C(=O)CCC(=O)N1CCCC2(CCC2)C1)C(=O)Nc1ccc2c(c1)CCC2: 3.9
3) N#Cc1cc2c(cc1NC(=O)[C@H](CCN)NC(=O)[C@@H]1Cc3ccccc3CN1C(=O)CCC(=O)c1ccccc1)CCC2: 4.4
4) CC1(C)CCCCN1C(=O)CCC(=O)N1Cc2ccccc2C[C@H]1C(=O)N[C@@H](CCN)C(=O)Nc1ccc(Cl)c(Cl)c1F: 2.4
5) CC1(C)CCCCN1C(=O)CCC(=O)N1Cc2cc(F)ccc2C[C@H]1C(=O)N[C@@H](CCN)C(=O)Nc1ccc(Cl)c(Cl)c1F: 1.4

----------
- assay system: CXCR3 (Homo sapiens, UniProt P49682)
- Construct: host or cells: CHO-K1 (cAMP Hunter CHOK1 CXCR3 Gi cell line)
- Sequence (P49682 whole entry): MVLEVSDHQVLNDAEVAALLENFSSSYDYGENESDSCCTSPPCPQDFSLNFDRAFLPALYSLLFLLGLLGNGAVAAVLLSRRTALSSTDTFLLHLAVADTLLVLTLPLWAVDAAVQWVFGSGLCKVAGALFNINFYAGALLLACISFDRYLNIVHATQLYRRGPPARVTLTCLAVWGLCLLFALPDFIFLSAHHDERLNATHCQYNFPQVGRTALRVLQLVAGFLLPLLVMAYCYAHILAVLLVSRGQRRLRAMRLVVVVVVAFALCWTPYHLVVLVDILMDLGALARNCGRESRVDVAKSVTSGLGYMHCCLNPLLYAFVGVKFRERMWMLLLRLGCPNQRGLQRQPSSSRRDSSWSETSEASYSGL
- assay overview: CXCR3 cAMP agonist assay (cAMP Hunter CHOK1 CXCR3 Gi cell line, forskolin-stimulated, HitHunter cAMP detection)
- Assay type: cell-based
- condition set: cAMP Hunter CHOK1 CXCR3 Gi cells, 20 μM forskolin, 30 minutes; read-out: Activity (CXCR3 cAMP agonist assay compound EC50)
pEC50: −log10 of the molar value.
measurement label: pEC50

1) NCC[C@H](NC(=O)[C@@H]1Cc2ccccc2CN1C(=O)CCC(=O)N1CC2CCCCC2C1)C(=O)Nc1ccc(Cl)c(Cl)c1F (stereo partly drawn): > 7.30
2) O=C(CCC(=O)N1Cc2ccccc2CC1C(=O)NC(CCN1CCC(F)CC1)C(=O)Nc1ccc(Cl)c(Cl)c1F)c1ccccc1 (racemic): > 7.30
3) O=C(CCC(=O)N1Cc2ccccc2C[C@H]1C(=O)N[C@@H](CCN1CCCC(F)(F)C1)C(=O)Nc1ccc(Cl)c(Cl)c1F)c1ccccc1: 6.30 to 6.60
4) Cc1cc(NC(=O)[C@H](CCN)NC(=O)[C@@H]2Cc3ccccc3CN2C(=O)CCC(=O)N2CC(N(C)C)C2)ccc1Cl: 6.60 to 7.30
5) Cc1cc(NC(=O)[C@H](CCCCN)NC(=O)[C@@H]2Cc3ccccc3CN2C(=O)CCC(=O)c2ccccc2)cnc1C: > 7.30
6) Cc1cc(NC(=O)[C@H](CCN)NC(=O)[C@@H]2Cc3ccccc3CN2C(=O)CCC(=O)N2CCC[C@@H]2c2ccccc2)ccc1Cl: 6.60 to 7.30

----------
- assay system: CXCR3 (Homo sapiens)
- Construct: host or cells: CHO-K1 (cAMP Hunter CHOK1 CXCR3 Gi cell line)
- assay overview: CXCR3 cAMP agonist assay (cAMP Hunter CHOK1 CXCR3 Gi cell line, forskolin-stimulated, HitHunter cAMP detection)
- Format: cell-based
- condition set: cAMP Hunter CHOK1 CXCR3 Gi cells, 20 μM forskolin, 30 minutes; read-out: Activity (CXCR3 cAMP agonist assay compound EC50)
pEC50: −log10 of the molar value.
measurement label: pEC50

1) Cc1cc(NC(=O)[C@H](CCCCN)NC(=O)[C@@H]2Cc3ccccc3CN2C(=O)CCC(=O)c2ccccc2)ccc1C(F)(F)F [Compound 1-28]: 6.60 to 7.30
2) COc1nccc(C[C@H](NC(=O)[C@@H]2Cc3ccccc3CN2C(=O)CCC(=O)c2ccccc2)C(=O)Nc2ccc(Cl)c(C)c2)n1 [Compound 3-11]: 6.30 to 6.60
3) Cc1ccc(NC(=O)[C@H](CCCCN)NC(=O)[C@@H]2Cc3ccccc3CN2C(=O)CCC(=O)c2ccccc2)cc1C(F)(F)F [Compound 1-30]: > 7.30
4) O=C(CCC(=O)N1Cc2ccccc2C[C@H]1C(=O)NC1(C(=O)Nc2ccc(Cl)c(Cl)c2F)CCNCC1)c1ccccc1 [Compound 4-14]: > 7.30
5) Cc1cc(NC(=O)[C@H](CCC(N)=O)NC(=O)[C@@H]2Cc3ccccc3CN2C(=O)CCC(=O)c2ccccc2)ccc1Cl [Compound 3-13]: 6.60 to 7.30
6) Cc1cc(NC(=O)[C@H](CCN)NC(=O)[C@@H]2Cc3ccccc3CN2C(=O)CCC(=O)N2CCN(C)c3ccccc32)ccc1Cl [Compound 12-140]: > 7.30
